Assay: NCI Yeast Anticancer Drug Screen. Data for the sgs1 strain (AID 173);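 note: 0% = growth of vehicle-only control cultures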
Conditions: S. cerevisiae sgs1 mutant, at 100.0 µM
The panel holds about 79,000 compounds, 15% with a hit somewhere; the sample as a whole holds those more often. The source made the active and inactive calls. Cut-off read from the data, not from the text of the source: active = growth inhibition above about 70%; inactive = the rest.
The reply should be one of these categories: active, inactive

>  <molecule>
CN=C(N)N/N=C(\C)c1ccc2oc3ccc(/C(C)=N/NC(N)=NC)cc3c2c1

>  <label>
active

$$$$
>  <molecule>
CC(C)(O)c1ccccc1C(c1ccccc1)c1ccccc1

>  <label>
inactive

$$$$
>  <molecule>
O=C(NCCCCCN1CCC2(CCCCC2)CC1)C(C1CCCCC1)C1CCCCC1

>  <label>
active

$$$$
>  <molecule>
C=C1N(C)c2ccc(Cl)cc2C1(C)C

>  <label>
active

$$$$

Ask: Test call for this molecule, please: N#C/C(=C1C=C(Br)/C(=N\O)C=C\1Cl)c1cccc2ccccc12
Reply: active

Ask: Which outcome was entered for the molecule CC1C(C#N)(C#N)C(C#N)=C(N)C1(Cl)[N+](=O)[O-] (stereo unspecified) in this test?
Reply: active

* * *

Experiment: NCI Yeast Anticancer Drug Screen. Data for the bub3 strain (AID 167)
Details: S. cerevisiae bub3 mutant strain, at 3.7 µM, hits give high values
The panel holds about 79,000 compounds, 15% with a hit somewhere; the sample as a whole holds those more often.
measured-attribute: growth inhibition (%)
Report only the number, with the unit % understood.

A selection of reference data follows.
>  <compound>
CN(N=O)C(=O)N[C@@H](C=O)[C@@H](O)[C@H](O)[C@H](O)CO

>  <growth inhibition [%]>
0

$$$$
>  <compound>
Cc1c(-c2ccccc2)[nH]c2ccccc12

>  <growth inhibition [%]>
-7

$$$$
>  <compound>
CC(=O)N1C(=O)/C(=C\C(=O)c2ccc([N+](=O)[O-])cc2)c2ccccc21

>  <growth inhibition [%]>
-11

$$$$
>  <compound>
CC(=O)O[C@H]1C(=O)[C@@]2(C)[C@H]([C@H](OC(=O)c3ccccc3)[C@]3(O)C[C@H](OC(=O)[C@H](O)[C@@H](NC(=O)c4ccccc4)c4ccccc4)C(C)=C1C3(C)C)[C@]1(OC(C)=O)CO[C@@H]1C[C@@H]2O

>  <growth inhibition [%]>
-5

$$$$

Ask: For the compound CCOC(=O)Nc1ccc2c(c1)Cc1ccccc1-2 , what growth inhibition is on record?
Reply: 28

Ask: Entry CCOC(=O)C1=C(C)NC(C)=C(C(=O)OCC)C1c1ccccc1Cl has what growth inhibition?
Reply: 34

Ask: Recorded growth inhibition for CC(=O)c1cc2c(Cl)cc(Cl)cc2oc1=O , please?
Reply: -17

Ask: // query growth inhibition value for entry CC(=O)C1=C(C)O/C(=C/c2cccc(Cl)c2)C1=O
Reply: 12

Ask: # input compound: COc1cccc(C(c2cc3c(cc2O)OCO3)N2CCOCC2)c1OC (centres undefined) ; wanted: its growth inhibition
Reply: -4

* * *

Assay: NCI Yeast Anticancer Drug Screen. Data for the rad18 strain (AID 177)
Details: S. cerevisiae rad18 mutant growth inhibition; at 11.0 µM; hits give high values
About 79,000 compounds went through this panel and 15% of them were active in at least one assay; those are over-represented in the sample as a whole. Calls of active or inactive are those of the source. Cut-off read from the data, not from the text of the source: active = growth inhibition above about 70%; inactive = the rest.
measured-attribute: growth inhibition

The examples below pair each entry with its known result.
>  <molecule>
O=C1OC2C(O)COC2(OCc2c[nH]c3ccccc23)C1O (stereo not given) (tested in a mixture with another compound)

>  <growth inhibition>
9% (inactive)

$$$$
>  <molecule>
COc1cc2c(cc1C[N+](C)(C)CSc1ccccc1)-c1ccccc1CC2

>  <growth inhibition>
77% (active)

$$$$
>  <molecule>
O=C1CC(=O)N(C2CCCCC2)C(=O)N1c1ccccc1S(=O)(=O)Oc1ccccc1

>  <growth inhibition>
-19% (inactive)

$$$$

Ask: growth inhibition lookup needed for S=c1cn[nH]c2ccc(Br)cc12 , thanks.
Reply: 26% (inactive)

Ask: Consider the molecule shown here: COc1cc([C@@H]2c3cc4c(cc3[C@@H](OC3OC5COC(C)OC5C(O)C3O)[C@H]3COC(=O)[C@H]23)OCO4)cc(OC)c1O (stereo not given in full) What is its recorded growth inhibition?
Reply: -2% (inactive)

Ask: Consider the molecule COc1cc(N)ccc1Nc1c2ccccc2nc2ccccc12 and give its measured growth inhibition.
Reply: -4% (inactive)

Ask: Consider the molecule shown here: COc1ccc(N=Nc2ccc3oc(=O)c(C(=O)Nc4ccccc4)cc3c2)cc1 What is its recorded growth inhibition?
Reply: 84% (active)

Ask: So what does the record say about growth inhibition for NC(N)=N/N=C/c1cc(Cl)cc(Cl)c1O ?
Reply: -6% (inactive)

Ask: I am curious: what growth inhibition value has been reported for Cc1cc(O)c2c(c1)C(=O)C=C(Br)C2=O ?
Reply: 95% (active)

Ask: // returns reported growth inhibition for input S=P(N1CC1)(N1CC1)N1CC1
Reply: 6% (inactive)

Ask: Tell me the measured growth inhibition of N#CSC1CCCCNC1=O (stereo not given) , please.
Reply: 82% (active)

Ask: Which growth inhibition value is on record for COc1ccc2c(c1)[nH]c1c(/C=C/c3ccccc3)nccc12 ?
Reply: 6% (inactive)

Ask: Report growth inhibition for COCCCN(Cc1cc(OC)c(OC)c(OC)c1)C(=S)Nc1cccc(Cl)c1 please.
Reply: -17% (inactive)

Ask: Entry O=S(=O)(N/N=C/c1cccc(Cl)c1)c1ccccc1 has what growth inhibition?
Reply: 29% (inactive)

Ask: I would be grateful if you could share the reported growth inhibition for Nc1nc(N)c2c(n1)CCC(S(=O)(=O)c1ccc3ccccc3c1)C2 (stereo not given) .
Reply: 8% (inactive)

Ask: Query (molecule): COc1ccc2oc(-c3ccc(Cl)cc3)c(N3CCN(C)CC3)c2c1 ; field requested: growth inhibition
Reply: 91% (active)
